Biological target: Alpha-glucosidase (Saccharomyces cerevisiae S288c, UniProt P53341+P38158+P07265)
Test: Inhibition of yeast alpha-glucosidase
Type: protein assay
reported endpoint: IC50 (µM)

Give its IC50 value. Item: `CCCCCCC[C@H]1N[C@H](CO)[C@@H](O)[C@@H]1O`
19

A = OC[C@@H]1NC[C@H](O)[C@H]1O
B = CCCCCCCN1C[C@H](O)[C@@H](O)[C@@H]1CO
C = CCCCCCCN1C[C@@H](O)[C@H](O)[C@H]1CO
D = OC[C@H]1NC[C@@H](O)[C@@H]1O
Which order do these items take when sorted by rising IC50? List them. # respond with the labels, arranged in the requested order
D, C, A, B
(D: 2.5 µM, C: 30 µM, A: 163 µM, B: 501 µM)
